The measurements presented in this section are drawn from ChEMBL document CHEMBL4004840.

- Test system: Vero
- ASSAY: Cytotoxicity against African green monkey Vero cells measured at 24 hrs post dose
- Type: cell-based
- COND: chlorocebus sabaeus
Reported CC50 is given for each of the following compounds.
Please give a number only; it is taken to be in µM.

INSERT INTO results (structure, experimental_system, uom, numeric_result) VALUES
  ('CCC(CC)O[C@@H]1C=C(C(=O)Nc2ccccc2OC)C[C@H](N)[C@H]1NC(C)=O', 'Vero', 'µM', 155),
  ('CCC(CC)O[C@@H]1C=C(C(=O)Nc2ccccc2OC)C[C@H](NC(=O)OC(C)(C)C)[C@H]1NC(C)=O', 'Vero', 'µM', 755),
  ('CCC(CC)O[C@@H]1C=C(C(=O)Nc2ccccc2)C[C@H](N)[C@H]1NC(C)=O', 'Vero', 'µM', 153);

The measured CC50 associated with CCC(CC)O[C@@H]1C=C(C(=O)O)C[C@H](NC(=O)OC(C)(C)C)[C@H]1NC(C)=O reads 750

The compound identified as CCC(CC)O[C@@H]1C=C(C(=O)Nc2ccccc2)C[C@H](NC(=O)OC(C)(C)C)[C@H]1NC(C)=O registered its CC50 at 755
